# systemUnderTest: EGFR (Homo sapiens, UniProt P00533)
# Construct: Add 7 ug A431 cell lysate per well (EGFR source); endogenous in cells; host or cells: A431
# Sequence (P00533 25-1210): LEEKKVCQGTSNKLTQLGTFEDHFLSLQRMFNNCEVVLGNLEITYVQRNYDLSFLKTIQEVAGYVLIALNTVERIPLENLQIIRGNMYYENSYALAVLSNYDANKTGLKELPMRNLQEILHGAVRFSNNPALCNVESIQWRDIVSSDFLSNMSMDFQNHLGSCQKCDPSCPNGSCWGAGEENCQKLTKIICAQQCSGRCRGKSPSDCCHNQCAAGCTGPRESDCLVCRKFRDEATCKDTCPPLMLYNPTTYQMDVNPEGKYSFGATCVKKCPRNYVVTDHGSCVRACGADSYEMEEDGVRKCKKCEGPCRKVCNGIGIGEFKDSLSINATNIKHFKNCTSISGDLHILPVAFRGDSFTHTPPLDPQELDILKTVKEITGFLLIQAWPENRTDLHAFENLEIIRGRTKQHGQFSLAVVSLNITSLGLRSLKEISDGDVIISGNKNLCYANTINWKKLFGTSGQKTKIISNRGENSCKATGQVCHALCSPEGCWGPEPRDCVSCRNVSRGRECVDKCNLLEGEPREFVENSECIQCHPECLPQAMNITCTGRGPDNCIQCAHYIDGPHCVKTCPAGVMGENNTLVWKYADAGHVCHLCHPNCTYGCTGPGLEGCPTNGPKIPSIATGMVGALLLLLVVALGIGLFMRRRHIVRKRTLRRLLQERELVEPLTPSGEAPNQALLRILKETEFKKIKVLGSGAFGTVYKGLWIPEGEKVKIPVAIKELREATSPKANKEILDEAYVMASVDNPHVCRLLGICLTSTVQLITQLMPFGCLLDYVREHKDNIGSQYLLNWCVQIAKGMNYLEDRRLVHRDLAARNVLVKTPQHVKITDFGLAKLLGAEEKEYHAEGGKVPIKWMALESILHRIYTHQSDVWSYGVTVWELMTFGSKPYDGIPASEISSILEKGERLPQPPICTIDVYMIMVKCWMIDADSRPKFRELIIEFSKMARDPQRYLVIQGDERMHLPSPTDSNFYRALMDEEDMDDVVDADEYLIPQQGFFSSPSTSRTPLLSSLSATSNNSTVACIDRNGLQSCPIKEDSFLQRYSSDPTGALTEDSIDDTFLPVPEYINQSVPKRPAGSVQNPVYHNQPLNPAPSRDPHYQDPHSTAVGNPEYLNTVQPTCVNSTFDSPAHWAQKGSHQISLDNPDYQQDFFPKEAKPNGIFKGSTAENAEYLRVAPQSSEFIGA
# testSummary: EGFR ELISA assay (in vitro kinase activity, EGFR captured from A431 cell lysate)
# Assay type: biochemical
# Design: concentration or dose not given beside the values
endpointName: Biochem EGFR %Inhibition (%)
Report the value in % with no unit label.

Report Biochem EGFR %Inhibition, nothing else, for this compound: O=C1Nc2ccc(S(=O)(=O)N3CCOCC3)cc2C1=Cc1c(F)cc(F)cc1F [10720/F02] -19.3

Report Biochem EGFR %Inhibition, nothing else, for this compound: COc1cc(C)cc(O)c1C=C1C(=O)Nc2c(Br)cc(Br)cc21 [10725/A06] -9.5

Report Biochem EGFR %Inhibition, nothing else, for this compound: CCOc1cc(C=C2C(=O)Nc3ccc(S(=O)(=O)NC)cc32)ccc1O [10720/D09] 2.4

Report Biochem EGFR %Inhibition, nothing else, for this compound: O=C1Nc2ccc(S(=O)(=O)Nc3ccc(C(F)(F)F)cc3)cc2C1=Cc1ccccn1 [10729/E07] 26.7

Report Biochem EGFR %Inhibition, nothing else, for this compound: CN1C(=O)C(=C2C(=O)Nc3ccc(I)cc32)c2ccccc21 [10731/B10] 50.5

Report Biochem EGFR %Inhibition, nothing else, for this compound: COc1c(Cl)cc(C=C2C(=O)Nc3ccc(I)cc32)cc1C(C)(C)C [10732/B09] 2.0

Report Biochem EGFR %Inhibition, nothing else, for this compound: COc1ccc(C=C2C(=O)Nc3ccc(CCCl)cc32)cc1 [10726/G11] 1.3

Report Biochem EGFR %Inhibition, nothing else, for this compound: CNS(=O)(=O)c1ccc2c(c1)C(=C1C(=O)N(C)c3ccccc31)C(=O)N2 [10731/D10] 15.8

Report Biochem EGFR %Inhibition, nothing else, for this compound: Cc1c(Br)ccc2c1C(=C1C(=O)Nc3ccc(F)cc31)C(=O)N2 [10726/C08] 7.5

Report Biochem EGFR %Inhibition, nothing else, for this compound: Cc1cc(C=C2C(=O)Nc3ccc(Br)c(C)c32)cc(C)c1OCc1ccccc1 [10733/C07] 16.7

Report Biochem EGFR %Inhibition, nothing else, for this compound: O=C1Nc2ccc(I)cc2C1=Cc1coc2c(Br)cc(Br)cc2c1=O [10730/B09] 14.2

Report Biochem EGFR %Inhibition, nothing else, for this compound: Cn1c(C=C2C(=O)Nc3ccc(CCCl)cc32)nc2ccccc21 [10721/G02] 23.6

Report Biochem EGFR %Inhibition, nothing else, for this compound: O=C1Nc2ccc(S(=O)(=O)Nc3ccc(C(F)(F)F)cc3)cc2C1=Cc1ccco1 [10718/E10] -7.5

Report Biochem EGFR %Inhibition, nothing else, for this compound: CCc1ccc(C=C2C(=O)Nc3ccc(I)cc32)s1 [10726/B10] 40.8

Report Biochem EGFR %Inhibition, nothing else, for this compound: Cn1c(C=C2C(=O)Nc3ccc(S(=O)(=O)Nc4ccc(C(F)(F)F)cc4)cc32)nc2ccccc21 [10721/E02] -9.5

Report Biochem EGFR %Inhibition, nothing else, for this compound: CCOC(=O)CCc1c(C(=O)OCC)[nH]c(C=C2C(=O)Nc3c(Br)cc(Br)cc32)c1CC(=O)OCC [10718/A05] -6.9

Report Biochem EGFR %Inhibition, nothing else, for this compound: COc1cc(O)ccc1C=C1C(=O)Nc2c(Br)cc(Br)cc21 [10720/A03] -5.3

Report Biochem EGFR %Inhibition, nothing else, for this compound: COc1cc(Br)cc(C=C2C(=O)Nc3ccc(I)cc32)c1O [10733/B08] 32.5

Where do the numbers come from? From patent EP1247803A2.
